target: Aldehyde dehydrogenase 1A1 (Homo sapiens); assay: qHTS Assay for Inhibitors of Aldehyde Dehydrogenase 1 (ALDH1A1); settings: Purified ALDH1A1, NADH fluorescence, propionaldehyde substrate; series mostly up to 75.3 µM
Screen size: about 220,000 compounds; about 16,000 (7.3%) were called active. Another 25% or so got no clear call; they are omitted. Calls follow the shape of the dose curve; as a rule, active = well fitted inhibition curve with a large enough effect (not every such curve was filed as active); inconclusive = small, poorly fitted or top-dose-only effect, or another doubt; inactive = no such curve, though single readings can be large or run the other way. The list comes from a sample in which actives are over-represented; it also holds close analogues and randomly drawn compounds.
Your reply should match one of these outcome classes. 1 (yes) = active, 0 (no) = inactive

See these solved cases before continuing.
molecule: Cc1c(N=Nc2ccc(N(C)C)cc2)c(=O)n(-c2ccccc2)n1C
labelClass: 0 (no)

molecule: Cc1nc(NC(=O)CN(C)S(=O)(=O)c2ccc(Cl)cc2)sc1C
labelClass: 0 (no)

molecule: Cc1ccc(C(=O)c2c(NC(=O)c3ccccc3)sc(C)c2C)cc1
labelClass: 1 (yes)

molecule: CCOC(=O)N1CCN(C(=S)Nc2ccc(C)cc2C)CC1
labelClass: 0 (no)

molecule: Cc1ccc(C(=O)NCCNC(=O)c2ccccc2)cc1
labelClass: 0 (no)

Task: Short answer needed: outcome of this test for Cc1ccc(COc2ccc(/C=N/NC(=O)CN3CCCCC3)cc2)cc1 ?
Result: 0 (no)

Task: Short answer needed: outcome of this test for CS(=O)(=O)n1nc(-c2ccco2)nc1N ?
Result: 0 (no)

Task: Short answer needed: outcome of this test for CC(=O)c1cc(C#N)c(SCC(=O)Nc2nccs2)nc1C ?
Result: 0 (no)

----------
biological target: Aldehyde dehydrogenase 1A1 (Homo sapiens) (UniProt P00352); experiment: qHTS Assay for Inhibitors of Aldehyde Dehydrogenase 1 (ALDH1A1); conditions: Purified ALDH1A1, NADH fluorescence, propionaldehyde substrate; series mostly up to 75.3 µM
Sequence (P00352 whole entry, looked up): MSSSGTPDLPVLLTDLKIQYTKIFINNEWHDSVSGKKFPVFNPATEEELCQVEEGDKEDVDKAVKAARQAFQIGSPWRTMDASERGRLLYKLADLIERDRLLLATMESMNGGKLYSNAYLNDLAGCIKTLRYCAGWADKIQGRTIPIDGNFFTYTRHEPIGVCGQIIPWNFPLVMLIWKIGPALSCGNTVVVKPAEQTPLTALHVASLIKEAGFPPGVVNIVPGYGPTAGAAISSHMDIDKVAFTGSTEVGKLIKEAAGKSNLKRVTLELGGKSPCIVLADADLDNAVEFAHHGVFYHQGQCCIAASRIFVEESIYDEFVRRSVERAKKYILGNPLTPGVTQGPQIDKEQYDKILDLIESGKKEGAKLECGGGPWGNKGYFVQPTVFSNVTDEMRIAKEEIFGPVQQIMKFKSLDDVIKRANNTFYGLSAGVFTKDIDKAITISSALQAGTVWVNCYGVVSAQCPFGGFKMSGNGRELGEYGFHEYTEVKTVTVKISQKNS
The whole screen tested about 220,000 compounds, of which about 16,000 (7.3%) were called active. Roughly 25% stayed inconclusive and do not appear here. The call rests on the fitted dose curve; in most records, active means well fitted inhibition curve with a large enough effect (not every such curve was filed as active); inconclusive means small, poorly fitted or top-dose-only effect, or another doubt; inactive means no such curve, though single readings can be large or run the other way. The sample holds actives, similar compounds and a random draw of the others, so the mix is not that of the screen.
Your reply should match one of these outcome classes. true = active, false = inactive

See these solved cases before continuing.
compound: CCCc1nc2c([nH]1)C(c1cccnc1)C(C#N)=C(N)O2 (stereo unspecified)
labelClass: true
--
compound: CC(CC(=O)Nc1ccccc1)n1ccnc1 (stereo unspecified)
labelClass: false
--
compound: O=S(=O)(NCCc1ccc(F)cc1)c1cccc2cccnc12
labelClass: false
--
compound: NCCC(=O)c1ccccc1N
labelClass: false
--
compound: COc1cc2[nH]c(=S)n(Cc3ccc(F)cc3)c(=O)c2cc1OC
labelClass: false

Task: Short answer needed: outcome of this test for COc1ccc(C)cc1NC(=O)CSc1ccc(Cl)cc1 ?
Result: false

Task: Short answer needed: outcome of this test for CCOc1c(OC)cc(C2C(C#N)=C(N)Oc3n[nH]c(-c4ccncc4)c32)cc1OC (stereo unspecified) ?
Result: false

Task: Short answer needed: outcome of this test for COc1cc([C@H](Cc2ccccc2)NC(C)=O)oc(=O)c1 ?
Result: false

Task: Short answer needed: outcome of this test for Cc1ccc(C(=O)N2CCN(S(=O)(=O)N3CCOCC3)CC2)cc1 ?
Result: false

Task: Short answer needed: outcome of this test for O=C(NC1(C(F)(F)F)NC(=O)N(C2CCCCC2)C1=O)c1ccco1 (stereo unspecified) ?
Result: false

Task: Short answer needed: outcome of this test for COc1ccc(C)cc1NC(=O)CSc1nnc(CC(=O)Nc2ccccc2F)n1C ?
Result: false

----------
target: Aldehyde dehydrogenase 1A1 (Homo sapiens); assay: qHTS Assay for Inhibitors of Aldehyde Dehydrogenase 1 (ALDH1A1); settings: Purified ALDH1A1, NADH fluorescence, propionaldehyde substrate; series mostly up to 75.3 µM; also: potency is read from the fitted curve at half-maximal effect
In all, about 220,000 compounds went through this assay and about 16,000 (7.3%) were called active. About 25% were inconclusive and are not listed. The full list was thinned out, with actives kept by preference.
quantityKind: Potency

// solved cases for Potency follow
compound: Cn1cnnc1SCc1nnc(-c2ccccc2Br)o1
testedSystem: Aldehyde dehydrogenase 1A1 (Homo sapiens)
Potency: inactive

compound: O=C(N/N=C/c1cc2c(cc1Br)OCO2)C1COc2ccccc2O1 (centres undefined)
testedSystem: Aldehyde dehydrogenase 1A1 (Homo sapiens)
Potency: 25.1 µM (active)

compound: CCn1c(SCC(=O)NCC2CCCO2)nc2cc(S(=O)(=O)N3CCCCC3)ccc21 (centres undefined)
testedSystem: Aldehyde dehydrogenase 1A1 (Homo sapiens)
Potency: inactive

compound: O=C(Cc1ccc(-c2ccccc2)cc1)NC(c1ccccc1)c1ccccc1
testedSystem: Aldehyde dehydrogenase 1A1 (Homo sapiens)
Potency: 10 µM (active)

compound: C=CCC(C(=O)c1ccccc1)[N+](C)(C)CC=C (centres undefined)
testedSystem: Aldehyde dehydrogenase 1A1 (Homo sapiens)
Potency: inactive

compound: O=C(NCc1ccco1)c1cc2sccc2n1Cc1ccc(F)cc1
testedSystem: Aldehyde dehydrogenase 1A1 (Homo sapiens)
Potency: inactive

compound: O=c1[nH]c(CN2CCOCC2)nc2cc(Cl)ccc12
testedSystem: Aldehyde dehydrogenase 1A1 (Homo sapiens)
Potency: inactive

compound: O=C(NCCc1ccco1)c1nn(Cc2ccccc2)c(=O)c2ccccc12
testedSystem: Aldehyde dehydrogenase 1A1 (Homo sapiens)
Potency: 17.8 µM (active)

List Potency for every entry below, keeping the order given.
1. Oc1ccccc1N1CCN(C(=S)NCc2ccccc2)CC1
2. CCn1cc(C(=O)NCCCN2CCCCCC2)c(=O)c2cc(S(=O)(=O)N3CCc4ccccc4C3)ccc21
3. COC(=O)C1=C(C)Nc2ncnn2C1c1ccco1 (centres undefined)
4. O=C(NC(=O)N1CCOCC1)c1ccccc1
5. N=C(N)SCc1cccc2ccccc12
6. CCC(=O)Nc1sc(C(=O)Nc2ccccc2)c(C)c1C(=O)OC
7. COC(=O)CN1C(=O)C(O)=C(C(C)=O)C1c1ccc([N+](=O)[O-])cc1 (centres undefined)
8. COc1ccc(OCC(=O)Nc2nnc(-c3ccco3)s2)cc1

Result:
1. inactive
2. 7.94 µM (active)
3. inactive
4. inactive
5. inactive
6. inactive
7. inactive
8. 22.4 µM (active)

List Potency for every entry below, keeping the order given.
1. c1ccc2c(CSCc3nc4ccccc4[nH]3)cccc2c1
2. C#CCOCCOCCOCCNc1nc(N2CCN(C(=O)[C@H](Cc3ccc(O)cc3)n3cc(C(N)CC(C)C)nn3)CC2)nc(N2CCN(C(=O)[C@H](CCC(=O)O)n3cc(C(N)[C@H](C)CC)nn3)CC2)n1 (some centres undefined)
3. O=C(NC(=S)Nc1ccc2oc(=O)ccc2c1)c1ccc(-c2cccc(Cl)c2Cl)o1

Result:
["inactive", "inactive", "11.2 µM (active)"]

----------
target: Aldehyde dehydrogenase 1A1 (Homo sapiens); assay: qHTS Assay for Inhibitors of Aldehyde Dehydrogenase 1 (ALDH1A1); settings: Purified ALDH1A1, NADH fluorescence, propionaldehyde substrate; series mostly up to 75.3 µM
Among all 220,000 compounds or so, about 16,000 (7.3%) were called active. About 25% were inconclusive and are not listed. The call rests on the fitted dose curve; in most records, active means well fitted inhibition curve with a large enough effect (not every such curve was filed as active); inconclusive means small, poorly fitted or top-dose-only effect, or another doubt; inactive means no such curve, though single readings can be large or run the other way. For the sample, actives were picked, then their nearest neighbours and some compounds at random.
Your reply should match one of these outcome classes. active, inactive

compound: Cc1cc2c(cc1C)NC(c1ccccn1)C1=C(CC(C)(C)CC1=O)N2 (stereo unspecified)
testedSystem: Aldehyde dehydrogenase 1A1 (Homo sapiens)
labelClass: active
--
compound: CC(=O)C1=C(C)NC2=C(C(=O)CC(C)(C)C2)C1C (stereo unspecified)
testedSystem: Aldehyde dehydrogenase 1A1 (Homo sapiens)
labelClass: inactive
--
compound: CC(C)(C)OC(=O)NCCCCC1=CC2=CC(=O)C(C)(OC(=O)c3cccs3)C(=O)C2=CO1 (stereo unspecified)
testedSystem: Aldehyde dehydrogenase 1A1 (Homo sapiens)
labelClass: inactive
--
compound: COc1ccc(/C=N/N=C2/C(=O)Nc3ccccc32)cc1O
testedSystem: Aldehyde dehydrogenase 1A1 (Homo sapiens)
labelClass: inactive
--
compound: CSc1nc2sc3c(c2c(=O)[nH]1)CCc1ccccc1-3
testedSystem: Aldehyde dehydrogenase 1A1 (Homo sapiens)
labelClass: inactive
--
compound: Cc1nnc(SCC(=O)N2CCc3ccccc32)n1-c1ccccc1
testedSystem: Aldehyde dehydrogenase 1A1 (Homo sapiens)
labelClass: inactive
--
compound: Cc1ccc(S(=O)(=O)N(C)C)cc1NC(=O)COC(=O)c1c(C)noc1C
testedSystem: Aldehyde dehydrogenase 1A1 (Homo sapiens)
labelClass: inactive
--
compound: O=C(NCCc1ccccn1)c1cc(-c2ccc(Cl)cc2)nc2ccccc12
testedSystem: Aldehyde dehydrogenase 1A1 (Homo sapiens)
labelClass: inactive
--
compound: COc1ccc(-n2c(=S)[nH]c3sc4c(c3c2=O)CCc2ccccc2-4)cc1
testedSystem: Aldehyde dehydrogenase 1A1 (Homo sapiens)
labelClass: active
--
compound: Cc1ccc(NC(=O)OCCNC(=O)c2ccncc2)cc1
testedSystem: Aldehyde dehydrogenase 1A1 (Homo sapiens)
labelClass: inactive

Task: Short answer needed: outcome of this test for CC1(C)CC(=O)C2=C(C1)Nc1cc(C(=O)c3ccccc3)ccc1NC2c1ccccn1 (stereo unspecified) ?
Result: inactive

Task: Short answer needed: outcome of this test for CCC(C)(C)NC(=O)CN(C(=O)C(=O)Nc1ccc2c(c1)OCCO2)C(C)(C)CC ?
Result: inactive

Task: Short answer needed: outcome of this test for COCOc1cc(OC)ccc1C(=O)/C=C/c1ccc([N+](=O)[O-])cc1 ?
Result: inactive

Task: Short answer needed: outcome of this test for COC(=O)c1c(NC(=O)CN2C(=O)NC(CCc3ccccc3)C2=O)sc2c1CCCCC2 (stereo unspecified) ?
Result: active

Task: Short answer needed: outcome of this test for C(=N\N1CCN(c2ccccn2)CC1)/C1=C(N2CCOCC2)C(=C/c2ccccc2)/CC1 ?
Result: active

Task: Short answer needed: outcome of this test for Cc1noc(C)c1S(=O)(=O)Nc1ccc(C(=O)N2CCN(c3ccc(F)cc3)CC2)cc1 ?
Result: inactive

Where do these numbers come from? They come from PubChem BioAssay AID1030.
